Reference source: patent US20250019387A1

# STUDY_TARGET: KRAS G12C and cRAF (Ras-binding domain) interaction (Homo sapiens (Human), UniProt P01116, C118S/C51S/C80L/G12C)
# Sequence (P01116 other isoform, or with tags, fused parts or gaps G12C/C51S/C80L/C118S): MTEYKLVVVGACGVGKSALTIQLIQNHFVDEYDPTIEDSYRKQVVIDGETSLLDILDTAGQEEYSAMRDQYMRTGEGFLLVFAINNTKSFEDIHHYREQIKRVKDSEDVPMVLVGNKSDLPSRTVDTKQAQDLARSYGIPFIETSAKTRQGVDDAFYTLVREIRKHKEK
# PROTOCOL_DESCRIPTION: Inhibition of KRAS G12C and cRAF binding (AlphaScreen)
# CONDITION_DETAILS: GMPPNP-loaded KRAS G12C, 19-20 hours incubation with compound; read-out: IC50 (Inhibition of KRAS G12C and cRAF Binding)
pIC50: −log10 of the molar value.
QUANTITY: pIC50

Below: 2 compounds and their reported pIC50.
CN(c1nc(OC[C@@]23CCCN2C[C@H](F)C3)nc2c(F)c(-c3cccc4cccc(Cl)c34)ncc12)[C@@H]1CCN(C(=O)/C=C/c2ncncc2F)C1 | 7.00 to 8.00
COCCN1CC[C@@H]1/C=C/C(=O)N1CC[C@@H](N(C)c2nc(OC[C@@]34CCCN3C[C@H](F)C4)nc3c(F)c(-c4cccc5ccc(F)c(Cl)c45)ncc23)C1 | 7.00 to 8.00

Exam item: Can you look up the measured pIC50 of C#Cc1c(F)ccc2cccc(-c3ncc4c(N(C)[C@@H]5CCN(C(=O)/C=C/CN6CC[C@@H](OC)C6)C5)nc(OC[C@@]56CCCN5C[C@H](F)C6)nc4c3F)c12 for me?
Marked response: 7.00 to 8.00

Exam item: Can you look up the measured pIC50 of C=CC(=O)N1CC[C@@H](N(C)c2nc(OC[C@@]34CCCN3C[C@H](F)C4)nc3c(F)c(-c4cccc5ccc(F)c(C)c45)ncc23)C1 for me?
Marked response: 7.00 to 8.00

Exam item: Can you look up the measured pIC50 of C#Cc1c(F)ccc2cccc(-c3ncc4c(N(C)[C@@H]5CCN(C(=O)/C=C/CN6C[C@H]7C[C@@H]6CO7)C5)nc(OC[C@@]56CCCN5C[C@H](F)C6)nc4c3F)c12 for me?
Marked response: > 8.00
